Ref: patent US20160031935A1

Biological target: WT PCSK9(+V5) (Homo sapiens, UniProt Q8NBP7)
Construct: expressed in transfected cells
Sequence (Q8NBP7 153-692): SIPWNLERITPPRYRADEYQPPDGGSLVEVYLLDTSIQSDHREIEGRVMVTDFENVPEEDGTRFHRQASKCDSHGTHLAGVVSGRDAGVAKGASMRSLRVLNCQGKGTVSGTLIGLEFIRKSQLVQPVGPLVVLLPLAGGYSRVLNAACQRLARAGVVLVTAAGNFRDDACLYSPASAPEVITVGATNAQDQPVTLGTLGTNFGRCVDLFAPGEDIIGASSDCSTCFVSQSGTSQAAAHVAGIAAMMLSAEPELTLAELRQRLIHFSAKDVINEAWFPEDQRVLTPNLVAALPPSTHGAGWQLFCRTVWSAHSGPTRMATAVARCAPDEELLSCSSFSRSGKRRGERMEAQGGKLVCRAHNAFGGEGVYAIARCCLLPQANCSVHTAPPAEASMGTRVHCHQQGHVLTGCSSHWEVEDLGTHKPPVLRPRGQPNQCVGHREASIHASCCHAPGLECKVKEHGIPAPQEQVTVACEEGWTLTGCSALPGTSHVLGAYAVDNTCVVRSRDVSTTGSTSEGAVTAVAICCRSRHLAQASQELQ
Experiment: PCSK9 secretion assay: PCSK9 in media and cells by ELISA (media/cell ratio)
Type: cell-based
Details: 10 μM; HepG2 cells stably expressing WT PCSK9(+V5), 24 h
Recorded Secretion Inhibition (% Activity) by entry
RESULT_TYPE: Secretion Inhibition (% Activity) (%)

1) CC(C)[C@H](NC(=O)c1ccc(-c2ccc(F)cc2)cc1)C(=O)N[C@@H](Cc1ccccc1)C(=O)N[C@@H](C)C(=O)NC(CCC(N)=O)C(O)C(F)(F)F (stereo partly shown) ... 79
2) CC(C)[C@H](NC(=O)c1ccc(-c2ccccc2)cc1)C(=O)N[C@H](Cc1ccccc1)C(=O)N[C@@H](C)C(=O)NC(CCC(N)=O)C(O)C(F)(F)F (stereo partly shown) ... 74
3) CC(C)[C@H](NC(=O)c1ccc(-c2ccccc2)cc1)C(=O)N[C@@H](Cc1ccccc1)C(=O)NC1(C(=O)N[C@@H](CCC(N)=O)C(O)C(F)(F)F)CCC1 (single isomer, unassigned) ... 92
4) CCCCCCCCCC(=O)N[C@H](C(=O)N[C@@H](Cc1ccccc1)C(=O)N[C@@H](Cc1ccccc1)C(=O)NC(CCC(N)=O)C(O)C(F)(F)F)C(C)C (stereo partly shown) ... 82

###

System: HepG2 cells
Assay: Cell viability assay (cell density during the PCSK9 secretion assay)
Assay type: cell-based, human
Conditions: 33 μM
RESULT_TYPE: Cell viability (% DMSO Cnt)

1) CCCCCCCCCC(=O)N[C@H](C(=O)N[C@@H](Cc1ccccc1)C(=O)N[C@H](C)C(=O)N[C@@H](CCC(N)=O)C(O)C(F)(F)F)C(C)C (single isomer, unassigned) ... 80
2) CCCCCCCCCC(=O)N[C@H](C(=O)N[C@@H](Cc1ccccc1)C(=O)N[C@H](C(=O)NC(CCC(N)=O)C(O)C(F)(F)F)C(C)C)C(C)C (stereo partly shown) ... 93
3) CC(C)[C@H](NC(=O)c1ccc(C2(C(F)(F)F)N=N2)cc1)C(=O)N[C@@H](Cc1ccccc1)C(=O)N[C@@H](C)C(=O)NC(CCC(N)=O)C(O)C(F)(F)F (stereo partly shown) ... 88
4) CCCCCCCCCC(=O)N[C@H](C(=O)N[C@@H](Cc1ccccc1)C(=O)N[C@@H](Cc1ccccc1)C(=O)NC(CCC(N)=O)C(O)C(F)(F)F)C(C)C (stereo partly shown) ... 83

###

Molecular target: WT PCSK9(+V5) (Homo sapiens)
Construct: expressed in transfected cells
Test: PCSK9 secretion assay: PCSK9 in media and cells by ELISA (media/cell ratio)
Format: cell-based
Settings: 10 μM; HepG2 cells stably expressing WT PCSK9(+V5), 24 h
Classify as follows. Reported Secretion Inhibition (% Activity) greater than or equal to 80%: 1 (yes). Reported Secretion Inhibition (% Activity) below: 0 (no).

1) CSCC[C@H](NC(=O)c1ccc(-c2ccccc2)cc1)C(=O)N[C@@H](Cc1ccccc1)C(=O)N[C@@H](C)C(=O)NC(CCC(N)=O)C(O)C(F)(F)F (some centres unmarked) [Example 75] ... 1 (yes)
2) CC(C)[C@H](NC(=O)c1ccc(-c2ccccc2)cc1)C(=O)N[C@@H](Cc1ccccc1)C(=O)N[C@@H](C)C(=O)NC(CCC(N)=O)C(O)C(F)(F)F (some centres unmarked) [Example 24] ... 1 (yes)
3) CCCCCCCCCC(=O)N[C@H](C(=O)N[C@@H](Cc1ccccc1)C(=O)N[C@H](C)C(=O)N[C@@H](CCC(N)=O)C(O)C(F)(F)F)C(C)C (single isomer, unassigned) [Example 60] ... 0 (no)
4) CC(C)[C@H](NC(=O)c1ccc(C2(C(F)(F)F)N=N2)cc1)C(=O)N[C@@H](Cc1ccccc1)C(=O)N[C@@H](C)C(=O)NC(CCC(N)=O)C(O)C(F)(F)F (some centres unmarked) [Example 29] ... 1 (yes)
